Values from BindingDB's records for doi:10.1016/s1074-5521(98)90117-x

pKi: −log10 of the molar value.
The following compounds each carry a recorded pKi for HIV-1 protease (Human immunodeficiency virus, UniProt O90785).
readout.type: pKi

As a guide, the following entries are already answered.
compound: CCCCCCN1C(=O)N(Cc2ccc3[nH]nc(N)c3c2)[C@H](Cc2ccccc2)[C@H](O)[C@@H](O)[C@H]1Cc1ccccc1
pKi: 9.89

compound: CCCNc1[nH]nc2ccc(CN3C(=O)N(Cc4ccc5n[nH]c(NCCC)c5c4)[C@H](Cc4ccccc4)[C@H](O)[C@@H](O)[C@H]3Cc3ccccc3)cc12
pKi: 9.64

compound: CC(C)Nc1[nH]nc2ccc(CN3C(=O)N(Cc4ccc5n[nH]c(NC(C)C)c5c4)[C@H](Cc4ccccc4)[C@H](O)[C@@H](O)[C@H]3Cc3ccccc3)cc12
pKi: 10.05

compound: CCCCN1C(=O)N(Cc2ccc3[nH]nc(N)c3c2)[C@H](Cc2ccccc2)[C@H](O)[C@@H](O)[C@H]1Cc1ccccc1
pKi: 10.68

a = Nc1cccc(CN2C(=O)N(Cc3cccc(N)c3)[C@H](Cc3ccccc3)[C@H](O)[C@@H](O)[C@H]2Cc2ccccc2)c1
b = CCNc1[nH]nc2ccc(CN3C(=O)N(Cc4ccc5n[nH]c(NCC)c5c4)[C@H](Cc4ccccc4)[C@H](O)[C@@H](O)[C@H]3Cc3ccccc3)cc12 [3-alkylaminoindazole cyclic urea, (Et)]
Task: Parameter metric = pKi. Return the lower-valued option from a and b . Field: selected label. Fill in the label of the entry you choose.
Result: a
(a: 9.52, b: 10.39)
